- target: hCA I (Homo sapiens, UniProt P00915)
- Sequence (P00915 whole entry): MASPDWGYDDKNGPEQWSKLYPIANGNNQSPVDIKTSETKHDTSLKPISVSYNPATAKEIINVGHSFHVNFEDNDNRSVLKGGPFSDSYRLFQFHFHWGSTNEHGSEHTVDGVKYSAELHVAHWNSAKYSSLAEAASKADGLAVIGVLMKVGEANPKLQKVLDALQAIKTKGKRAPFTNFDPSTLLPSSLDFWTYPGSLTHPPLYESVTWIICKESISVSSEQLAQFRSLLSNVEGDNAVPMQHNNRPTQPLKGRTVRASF
Provide the reported Ki of each item.

Any idea what its Ki is? The compound is Cc1cn([C@H]2C[C@H](n3cc(CCCOc4ccc5oc(=O)ccc5c4)nn3)[C@@H](CO)O2)c(=O)[nH]c1=O [Compound 16b]
> 10000 nM

Now give it for `Cc1cn([C@H]2C[C@H](n3cc(CN(CCc4ccc(S(N)(=O)=O)cc4)Cc4cn([C@H]5C[C@H](n6cc(C)c(=O)[nH]c6=O)O[C@@H]5CO)nn4)nn3)[C@@H](CO)O2)c(=O)[nH]c1=O` too.
> 10000 nM

Now give it for Cc1cn([C@H]2C[C@H](n3cc(CCCCOc4cc(=O)oc5ccccc45)nn3)[C@@H](CO)O2)c(=O)[nH]c1=O [Compound 14b] too.
> 10000 nM

Now give it for Cc1cn([C@H]2C[C@H](n3cc(C[Se]c4ccc(NC(=S)Nc5cccc(S(N)(=O)=O)c5)cc4)nn3)[C@@H](CO)O2)c(=O)[nH]c1=O [Compound 11b] too.
92.8 nM

Now give it for Cc1cn([C@H]2C[C@H](n3cc(COc4ccc5c(c4)C=CS(=O)(=O)O5)nn3)[C@@H](CO)O2)c(=O)[nH]c1=O [Compound 20b] too.
> 10000 nM

Now give it for `Cc1cn([C@H]2C[C@H](n3cc(CNC(=O)c4ccc(S(N)(=O)=O)cc4)nn3)[C@@H](CO)O2)c(=O)[nH]c1=O` too.
483 nM

Now give it for Cc1cn([C@H]2C[C@H](n3cc(CCCOc4ccc5ccc(=O)oc5c4)nn3)[C@@H](CO)O2)c(=O)[nH]c1=O [Compound 18b] too.
> 10000 nM

Now give it for `Cc1cn([C@H]2C[C@H](n3cc(COC(=O)c4ccc(S(N)(=O)=O)cc4)nn3)[C@@H](CO)O2)c(=O)[nH]c1=O` too.
28 nM
